Target: SARS-CoV-2 3CL-protease (Severe acute respiratory syndrome coronavirus 2)
Test: SARS-CoV-2 3C-like (3CL) protease fluorescence assay (FRET)
Conditions: recombinant SARS-CoV-2 3CL-protease 10 nM, TAMRA-[…]-Dabcyl-OH substrate, 30 min preincubation at RT, run in duplicate
pIC50: −log10 of the molar value.
Property name: pIC50

The following compounds have reported results that may help.
INSERT INTO assay_data (structure_notation, property_name, reported) VALUES
  ('COc1cccc2[nH]c(C(=O)N[C@@H](CC(F)(F)F)C(=O)N[C@H](C#N)C[C@@H]3CCNC3=O)cc12', 'pIC50', '6.00 to 7.00'),
  ('COc1cccc2[nH]c(C(=O)N[C@H](C(=O)N[C@H](C#N)C[C@@H]3CCNC3=O)c3ccccc3)cc12', 'pIC50', '< 6.00'),
  ('CC(C)C[C@H](NC(=O)c1cc2ccccc2o1)C(=O)N[C@H](C#N)C[C@@H]1CCNC1=O', 'pIC50', '< 6.00');

Batch: pIC50 for all items listed.
1. N#C[C@H](C[C@@H]1CCCNC1=O)NC(=O)[C@H](CC1CCCCC1)NC(=O)c1cc2ccccc2o1
2. COc1cccc2[nH]c(C(=O)N[C@@H](Cc3ccccc3)C(=O)N[C@H](C#N)C[C@@H]3CCNC3=O)cc12
3. COc1cccc2[nH]c(C(=O)N[C@H](C(=O)N[C@H](C#N)C[C@@H]3CCNC3=O)C(C)C)cc12
4. COc1cccc2[nH]c(C(=O)N[C@@H](CCc3ccccc3)C(=O)N[C@H](C#N)C[C@@H]3CCNC3=O)cc12
5. COc1cccc2[nH]c(C(=O)N[C@H](C(=O)N[C@H](C#N)C[C@@H]3CCNC3=O)C(C)(C)C)cc12

1. 6.00 to 7.00
2. 6.00 to 7.00
3. < 6.00
4. 6.00 to 7.00
5. < 6.00

###

Target: UniProtKB P0DTD1
Assay: SARS-CoV-2 3C-like (3CL) protease fluorescence assay (FRET)
Details: recombinant SARS-CoV-2 3CL-protease 10 nM, TAMRA-[…]-Dabcyl-OH substrate, 30 min preincubation at RT, run in duplicate
For each record, write down the corresponding IC50.

These solved cases illustrate the format of a correct answer.
INSERT INTO results (structure_notation, reported) VALUES
  ('COc1cccc2[nH]c(C(=O)N[C@@H](CC3CCCCC3)C(=O)N[C@H](C#N)C[C@@H]3CCCNC3=O)cc12', '< 100 nM'),
  ('COc1cccc2[nH]c(C(=O)N[C@@H](CCSC)C(=O)N[C@H](C#N)C[C@@H]3CCNC3=O)cc12', '100 to 1000 nM'),
  ('N#C[C@H](C[C@@H]1CCNC1=O)NC(=O)[C@H](CC1CCCCC1)NC(=O)c1cc2ccccc2o1', '> 1000 nM'),
  ('COc1cccc2[nH]c(C(=O)N[C@@H](CC3CCCC3)C(=O)N[C@H](C#N)C[C@@H]3CCNC3=O)cc12', '100 to 1000 nM'),
  ('COc1cccc2[nH]c(C(=O)N[C@@H](CCCc3ccccc3)C(=O)N[C@H](C#N)C[C@@H]3CCNC3=O)cc12', '> 1000 nM'),
  ('COc1cccc2[nH]c(C(=O)N[C@@H](Cc3ccccc3)C(=O)N[C@H](C#N)C[C@@H]3CCCNC3=O)cc12', '100 to 1000 nM');

Then this molecule:
Request body: readout IC50, system UniProtKB P0DTD1, query COc1cccc2[nH]c(C(=O)N[C@H](C(=O)N[C@H](C#N)C[C@@H]3CCNC3=O)C3CCCCC3)cc12 . Return the value.
> 1000 nM
